Assay: physchem
Assay type: physicochemical
Settings: pH 7.4, aqueous buffer, kinetic from dmso stock; pH7.4; read-out: Kinetic Solubility pH7.4
# solubility kinetic >= 60 µM gives rule met, anything below gives rule not met

// query Hello, I need to know if CCOC(=O)c1c(NC(=O)c2c(F)c(F)c(F)c(F)c2F)ncn1C [Compound 21] has measured solubility kinetic not below 60 µM. Thanks!
// result rule met

// query Hello, I need to know if Fc1c(F)c(F)c(-c2nc3c(N4CCOCC4)ncnc3o2)c(F)c1F [Compound 10] has measured solubility kinetic not below 60 µM. Thanks!
// result rule not met

// query Hello, I need to know if CCOC(=O)c1nc(C)oc1NC(=O)c1c(F)c(F)cc(F)c1F [Compound 28] has measured solubility kinetic not below 60 µM. Thanks!
// result rule met

// query Hello, I need to know if CCOC(=O)c1nc(C)oc1NC(=O)c1cc(F)c(F)c(F)c1 [Compound 26] has measured solubility kinetic not below 60 µM. Thanks!
// result rule met

// query Hello, I need to know if COC(=O)c1nn(C)cc1NC(=O)c1c(F)c(F)c(F)c(F)c1F [Compound 19] has measured solubility kinetic not below 60 µM. Thanks!
// result rule not met

// query Hello, I need to know if CN(C)c1ncnc2sc(-c3c(F)c(F)c(F)c(F)c3F)nc12.Cl [Compound 1] has measured solubility kinetic not below 60 µM. Thanks!
// result rule not met

---

Assign Microsomal Cli to each entry below.
Type: in vitro ADME, mouse
Details: supplement data table
Quick note: give the figure in mL/min/g, leave out the unit.

// query // Microsomal Cli lookup, key: `Fc1c(F)c(F)c(-c2nc3c(N4CCOCC4)ncnc3o2)c(F)c1F`
// result 44

// query // Microsomal Cli lookup, key: `COC(=O)c1nn(C)cc1NC(=O)c1c(F)c(F)c(F)c(F)c1F`
// result 23

// query // Microsomal Cli lookup, key: `CCOC(=O)c1nc(C)oc1NC(=O)c1cc(F)c(F)c(F)c1`
// result 7.1

// query // Microsomal Cli lookup, key: `CCOC(=O)c1c(NC(=O)c2c(F)c(F)c(F)c(F)c2F)ncn1C`
// result 8.6

---

Assay: physchem
Assay type: physicochemical
Settings: read-out: Kin. Sol
Assign solubility kinetic to each entry below.
Quick note: give the figure in µM, leave out the unit.

// query // solubility kinetic lookup, key: `CCOC(=O)c1nc(C)oc1NC(=O)c1cc(F)c(F)c(F)c1F`
// result 136

// query // solubility kinetic lookup, key: `Fc1c(F)c(F)c(-c2nc3c(N4CCOCC4)ncnc3s2)c(F)c1F`
// result 2.8

// query // solubility kinetic lookup, key: `CC(=O)c1nc(C)oc1NC(=O)c1c(F)c(F)c(F)c(F)c1F`
// result 241

// query // solubility kinetic lookup, key: `COC(=O)c1nc(C)oc1NC(=O)c1c(F)c(F)c(F)c(F)c1F`
// result 237

---

Assign MIC to each entry below.
Test system: M. tuberculosis (H37Rv)
Assay: microbe, parasite or virus in culture
Type: cell-based, Mycobacterium tuberculosis
Settings: Mycobacterium tuberculosis, H37RV; read-out: Wk2_7H9/DPPC/ casitone/ Tyloxapol MIC
Quick note: give the figure in µM, leave out the unit.

// query Recall the recorded MIC for Cc1nc(C(=O)N(C)C)c(NC(=O)c2c(F)c(F)c(F)c(F)c2F)o1 [Compound 40] with M. tuberculosis (H37Rv) and state it.
// result 12.5

// query Recall the recorded MIC for CN(C)c1ncnc2oc(-c3c(F)c(F)c(F)c(F)c3F)nc12 [Compound 6] with M. tuberculosis (H37Rv) and state it.
// result 0.2

// query Recall the recorded MIC for CCOC(=O)c1nc(C)oc1NC(=O)c1c(F)cc(F)c(F)c1F [Compound 27] with M. tuberculosis (H37Rv) and state it.
// result 3.1

// query Recall the recorded MIC for Cc1nc(-c2ncco2)c(NC(=O)c2c(F)c(F)c(F)c(F)c2F)o1 [Compound 41] with M. tuberculosis (H37Rv) and state it.
// result 0.4

---

Format: in vitro ADME, mouse
Details: mouse, hepatocytes
measurement.name: Mouse Heps Cl (mLmin/g)
Quick note: give the figure in mLmin/g, leave out the unit.

// query // Mouse Heps Cl lookup, key: COC(=O)c1nc(C)oc1NC(=O)c1c(F)c(F)c(F)c(F)c1F [Compound 23]
// result 8.1

// query // Mouse Heps Cl lookup, key: CCOC(=O)c1nc(C)oc1NS(=O)(=O)c1c(F)c(F)c(F)c(F)c1F [Compound 30]
// result 0.78

// query // Mouse Heps Cl lookup, key: CNc1ncnc2oc(-c3c(F)c(F)c(F)c(F)c3F)nc12 [Compound 12, CNc1ncnc2oc(nc12)-c1c(c(c(c(c1F)F)F)F)F]
// result 4.7

---

Type: in vitro ADME, mouse
Conditions: supplement data table
measurement.name: Hepatocyte Cli

// query // Hepatocyte Cli lookup, key: `Fc1c(F)c(F)c(-c2nc3c(N4CCOCC4)ncnc3o2)c(F)c1F`
// result >50 mL/min/g

// query // Hepatocyte Cli lookup, key: `COC(=O)c1nn(C)cc1NC(=O)c1c(F)c(F)c(F)c(F)c1F`
// result >50 mL/min/g

// query // Hepatocyte Cli lookup, key: `CCOC(=O)c1nc(C)oc1NC(=O)c1c(F)c(F)cc(F)c1F`
// result 0.9 mL/min/g

// query // Hepatocyte Cli lookup, key: `CN(C)c1ncnc2sc(-c3c(F)c(F)c(F)c(F)c3F)nc12.Cl`
// result >50 mL/min/g

---

Assign solubility kinetic to each entry below.
Assay: physchem
Format: physicochemical
Conditions: read-out: Kin. Sol

// query // solubility kinetic lookup, key: `CCOC(=O)c1nc(CN(C)C)oc1NC(=O)c1c(F)c(F)c(F)c(F)c1F`
// result 225 µM

// query // solubility kinetic lookup, key: `CNc1ncnc2oc(-c3c(F)c(F)c(F)c(F)c3F)nc12`
// result 228 µM

// query // solubility kinetic lookup, key: `Cc1nc(C(=O)N(C)C)c(NC(=O)c2c(F)c(F)c(F)c(F)c2F)o1`
// result 242 µM

// query // solubility kinetic lookup, key: `Cc1nc(C(=O)O)c(NC(=O)c2c(F)c(F)c(F)c(F)c2F)o1`
// result 250 µM

---

Assay type: in vitro ADME, mouse
Conditions: mouse, microsomes
measurement.name: Mouse micro Cl

// query // Mouse micro Cl lookup, key: `Cc1ncc(NC(=O)c2c(F)c(F)c(F)c(F)c2F)o1`
// result <0.5 mL/min/g

// query // Mouse micro Cl lookup, key: `CCOC(=O)c1nc(COC)oc1NC(=O)c1c(F)c(F)c(F)c(F)c1F`
// result <0.5 mL/min/g

// query // Mouse micro Cl lookup, key: `Cc1nc(C(=O)OC(C)(C)C)c(NC(=O)c2c(F)c(F)c(F)c(F)c2F)o1`
// result 1.1 mL/min/g

// query // Mouse micro Cl lookup, key: `Cc1nnc(-c2nc(C)oc2NC(=O)c2c(F)c(F)c(F)c(F)c2F)o1`
// result <0.5 mL/min/g

// query // Mouse micro Cl lookup, key: `CN(C)c1ncnc2sc(-c3c(F)c(F)cc(F)c3F)nc12`
// result >50 mLmin/g

// query // Mouse micro Cl lookup, key: `COC(=O)c1ccncc1NC(=O)c1c(F)c(F)c(F)c(F)c1F`
// result 27 mLmin/g

// query // Mouse micro Cl lookup, key: `Cc1nc(-c2ncco2)c(NC(=O)c2c(F)c(F)c(F)c(F)c2F)o1`
// result 0.51 mL/min/g

// query // Mouse micro Cl lookup, key: `COC(=O)c1cccnc1NC(=O)c1c(F)c(F)c(F)c(F)c1F`
// result 47 mLmin/g

// query // Mouse micro Cl lookup, key: `CCOC(=O)c1nc(N(C)C)oc1NC(=O)c1c(F)c(F)c(F)c(F)c1F`
// result 1.4 mL/min/g

// query // Mouse micro Cl lookup, key: `CN(C)c1ccnc2oc(-c3c(F)c(F)c(F)c(F)c3F)nc12`
// result >50 mLmin/g

// query // Mouse micro Cl lookup, key: `CN(C)c1ncnc2sc(-c3ccccc3)nc12`
// result >50 mLmin/g

// query // Mouse micro Cl lookup, key: `CN(C)c1ncnc2sc(-c3ccc(F)cc3)nc12`
// result >50 mLmin/g

// query // Mouse micro Cl lookup, key: `Cc1nc(C(=O)O)c(NC(=O)c2c(F)c(F)c(F)c(F)c2F)o1`
// result <0.5 mL/min/g

// query // Mouse micro Cl lookup, key: `Oc1ncnc2oc(-c3c(F)c(F)c(F)c(F)c3F)nc12`
// result 2.81 mLmin/g

// query // Mouse micro Cl lookup, key: `CCOC(=O)c1nc(C)oc1NC(=O)c1c(F)cc(F)c(F)c1F`
// result 0.80 mLmin/g

---

Assign Microsomal Cli to each entry below.
Type: in vitro ADME, mouse
Conditions: CD1, mouse

// query // Microsomal Cli lookup, key: `CCOC(=O)c1nc(COC)oc1NC(=O)c1c(F)c(F)c(F)c(F)c1F`
// result <0.5 mL/min/g

// query // Microsomal Cli lookup, key: `Cc1nnc(-c2nc(C)oc2NC(=O)c2c(F)c(F)c(F)c(F)c2F)o1`
// result <0.5 mL/min/g

// query // Microsomal Cli lookup, key: `CN(C)c1ncnc2sc(-c3c(F)c(F)cc(F)c3F)nc12`
// result >50 mL/min/g

// query // Microsomal Cli lookup, key: `CC(=O)c1nc(C)oc1NC(=O)c1c(F)c(F)c(F)c(F)c1F`
// result <0.5 mL/min/g

// query // Microsomal Cli lookup, key: `CCOC(=O)c1nc(CN(C)C)oc1NC(=O)c1c(F)c(F)c(F)c(F)c1F`
// result <0.5 mL/min/g

Source listed as paper PMC11915372.
